- Assayed Target: PD-L1 His protein / PD-1 Fc protein (Homo sapiens (Human), UniProt Q9NZQ7)
- Sequence (Q9NZQ7 19-238): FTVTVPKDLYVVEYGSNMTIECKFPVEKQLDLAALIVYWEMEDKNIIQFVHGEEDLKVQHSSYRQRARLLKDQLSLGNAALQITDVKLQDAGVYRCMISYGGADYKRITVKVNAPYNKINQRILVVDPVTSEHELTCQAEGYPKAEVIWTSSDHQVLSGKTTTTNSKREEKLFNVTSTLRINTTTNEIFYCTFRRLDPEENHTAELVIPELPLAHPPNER
- Assay Procedure: HTRF Assay (PD-1/PD-L1 interaction)
- Type: binding
- Particulars: PD-L1 His 6 nM, PD-1 Fc 6 nM
Endpoint: pIC50
Scale explanation: pIC50 corresponds to minus log10 of a concentration expressed in moles per litre.

Some solved entries appear below for comparison.
COc1nc(-c2cccc(-c3ccnc(-c4cnc5c(CNC6CCN(C(C)=O)CC6)cn(C)c5c4)c3Cl)c2Cl)ccc1CNC[C@@H]1CCC(=O)N1 = 10.00
COc1cc(-c2nccc(-c3cccc(-c4ccc(C5=NCCN5)c(OC)n4)c3Cl)c2Cl)ccc1CNC[C@@H](O)CC(=O)O = 8.25
COc1cc(-c2nccc(-c3cccc(-c4ccc(CNC5CC6(C5)CN(C(C)=O)C6)c(OC)n4)c3C(F)(F)F)c2Cl)ccc1CNC1CC2(C1)CN(C(C)=O)C2 (stereo not drawn) = 8.39

In: Return the recorded pIC50 value; entry: "COc1cc(-c2nccc(-c3cccc(-c4ccc(CN5CC6(CNC(=O)C6)C5)c(OC)n4)c3Cl)c2Cl)ccc1CN1CC2(CNC2)C1"
Out: 8.28

In: Return the recorded pIC50 value; entry: "COCCNCc1ccc(-c2nccc(-c3cccc(-c4ccc(CNCCOC)c(OC)n4)c3Cl)c2Cl)cc1OC"
Out: 8.43

In: Return the recorded pIC50 value; entry: "COCC1CCN(Cc2ccc(-c3nccc(-c4cccc(-c5ccc(CNC6CCN(C(C)=O)CC6)c(OC)n5)c4Cl)c3Cl)cc2OC)CC1"
Out: 8.01
